tested.system: Adenosine receptor A1 (Rattus norvegicus) (UniProt P25099)
Sequence (P25099 whole entry): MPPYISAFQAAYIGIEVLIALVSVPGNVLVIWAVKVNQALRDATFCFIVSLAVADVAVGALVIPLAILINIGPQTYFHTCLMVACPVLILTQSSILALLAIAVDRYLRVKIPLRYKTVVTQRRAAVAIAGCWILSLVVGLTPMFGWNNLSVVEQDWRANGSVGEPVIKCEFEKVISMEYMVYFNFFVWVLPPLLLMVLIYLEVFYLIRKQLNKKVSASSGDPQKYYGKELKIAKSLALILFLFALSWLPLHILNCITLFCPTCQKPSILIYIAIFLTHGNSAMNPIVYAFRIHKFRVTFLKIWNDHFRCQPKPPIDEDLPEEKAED
assay.details: Percentage inhibition against Adenosine A1 receptor in rat brain membranes using [3H]-PIA
Assay type: cell membranes
Design: concentration or dose not given beside the values
settings: concentration not given here
attribute.measured: inhibition (%)

Worked examples follow.
{"compound": "O=c1cc(-c2ccccc2)oc2ccc(Cl)cc12", "attribute.measured": "inhibition", "value": 28}
{"compound": "Cc1cc(C)c(-c2oc3ccc(Cl)cc3c(=O)c2Cl)c(C)c1", "attribute.measured": "inhibition", "value": 37}

(A) O=c1c(Cl)c(-c2ccccc2)oc2ccc(Cl)cc12
(B) COc1c2ccoc2cc2oc(C)cc(=O)c12 [VISNAGIN]
Incoming: Which of the two gives a bigger number for inhibition: A or B ? Use the label to indicate which entry you chose.
Outgoing: B
(B: 36%, A: 15%)

Cited source: ChEMBL document CHEMBL1129333
